# Test system: Staphylococcus aureus
# PROTOCOL: Antibiofilm activity against methicillin-resistant Staphylococcus aureus assessed as inhibition of biofilm formation incubated for overnight by crystal violet staining based microtiter plate assay
# Type: functional, organism-based
Non-standard residues stand in square brackets, D forms with d. Residues, ends and D or L forms follow the SMILES beside them. Orn = NCCC[C@H](N)C(=O)O
METRIC: inhibition

>>> observed_measurement("CC[C@H](C)[C@H](NC(=O)[C@H](CCCNC(=N)N)NC(=O)[C@@H](NC(=O)[C@H](C)NC(=O)[C@@H](NC(=O)[C@@H](NC(=O)[C@H](CC(C)C)NC(=O)[C@H](CCCNC(=N)N)NC(=O)[C@@H](N)C(C)C)[C@@H](C)CC)C(C)C)C(C)C)C(=O)N[C@@H](CCCN)C(=O)N[C@@H](CCCNC(=N)N)C(=O)N[C@@H](CCCNC(=N)N)C(N)=O (H-VRLIVAVRI[Orn]RR-NH2)")
"Dose-dependent effect"
>>> observed_measurement("CC[C@H](C)[C@H](NC(=O)[C@H](CC(C)C)NC(=O)[C@H](CCCNC(=N)N)NC(=O)[C@@H](N)C(C)C)C(=O)N[C@H](C(=O)N[C@@H](C)C(=O)N[C@H](C(=O)N[C@@H](CCCNC(=N)N)C(=O)N[C@@H](CCCN)C(=O)N[C@@H](Cc1c[nH]c2ccccc12)C(=O)N[C@@H](CCCNC(=N)N)C(=O)N[C@@H](CCCNC(=N)N)C(N)=O)C(C)C)C(C)C (H-VRLIVAVR[Orn]WRR-NH2)")
"Dose-dependent effect"

###

Answer each item with its documented metabolised at 0.5 h, 10 µM.
# PROTOCOL: Stability of compound assessed as bovine trypsin-mediated compound hydrolysis at 10 uM incubated for 30 mins by RP-HPLC analysis
# Assay type: ADME, Bos taurus
# ASSAY SETUP: cattle, read-out: Drug degradation
The response must be a number in % with no trailing unit.

input: Give the value of metabolised at 0.5 h, 10 µM reported for the following: H-VKLIVKVKIWKK-NH2
output: 18

input: Give the value of metabolised at 0.5 h, 10 µM reported for the following: H-VKLIVAVKIWKK-NH2
output: 5

input: Give the value of metabolised at 0.5 h, 10 µM reported for the following: H-VRLIVAVRIWRR-NH2
output: 60

input: Give the value of metabolised at 0.5 h, 10 µM reported for the following: H-VRLIVRVRIWRR-NH2
output: 90

input: Give the value of metabolised at 0.5 h, 10 µM reported for the following: H-VRLIVKVRIWRR-NH2
output: 60

###

# Test system: Staphylococcus aureus
# PROTOCOL: Antibiofilm activity against methicillin-resistant Staphylococcus aureus assessed as inhibition of biofilm formation incubated for overnight by crystal violet staining based microtiter plate assay
# Type: functional, organism-based
Non-standard residues stand in square brackets, D forms with d. Residues, ends and D or L forms follow the SMILES beside them. hArg = N=C(N)NCCCC[C@H](N)C(=O)O; Orn = NCCC[C@H](N)C(=O)O; Dap = NC[C@H](N)C(=O)O
METRIC: inhibition

>>> observed_measurement("CC[C@H](C)[C@H](NC(=O)[C@H](CCCNC(=N)N)NC(=O)[C@@H](NC(=O)[C@H](C)NC(=O)[C@@H](NC(=O)[C@@H](NC(=O)[C@H](CC(C)C)NC(=O)[C@H](CCCN)NC(=O)[C@@H](N)C(C)C)[C@@H](C)CC)C(C)C)C(C)C)C(=O)N[C@@H](Cc1c[nH]c2ccccc12)C(=O)N[C@@H](CCCNC(=N)N)C(=O)N[C@@H](CCCNC(=N)N)C(N)=O (H-V[Orn]LIVAVRIWRR-NH2)")
"Dose-dependent effect"
>>> observed_measurement("CC[C@H](C)[C@H](NC(=O)[C@H](CCCNC(=N)N)NC(=O)[C@@H](NC(=O)[C@H](C)NC(=O)[C@@H](NC(=O)[C@@H](NC(=O)[C@H](CC(C)C)NC(=O)[C@H](CCCNC(=N)N)NC(=O)[C@@H](N)C(C)C)[C@@H](C)CC)C(C)C)C(C)C)C(=O)N[C@@H](Cc1c[nH]c2ccccc12)C(=O)N[C@@H](CN)C(=O)N[C@@H](CCCNC(=N)N)C(N)=O (H-VRLIVAVRIW[Dap]R-NH2)")
"Dose-dependent effect"
>>> observed_measurement("CC[C@H](C)[C@H](NC(=O)[C@H](CCCNC(=N)N)NC(=O)[C@@H](NC(=O)[C@H](C)NC(=O)[C@@H](NC(=O)[C@@H](NC(=O)[C@H](CC(C)C)NC(=O)[C@H](CCCNC(=N)N)NC(=O)[C@@H](N)CCCCNC(=N)N)[C@@H](C)CC)C(C)C)C(C)C)C(=O)N[C@@H](Cc1c[nH]c2ccccc12)C(=O)N[C@@H](CCCNC(=N)N)C(=O)N[C@@H](CCCNC(=N)N)C(N)=O (H-[hArg]RLIVAVRIWRR-NH2)")
"Dose-dependent effect"

###

# Test system: Staphylococcus aureus
# PROTOCOL: Antibiofilm activity against methicillin-resistant Staphylococcus aureus assessed as inhibition of biofilm formation incubated for overnight by crystal violet staining based microtiter plate assay
# Type: functional, organism-based
Non-standard residues stand in square brackets, D forms with d. Residues, ends and D or L forms follow the SMILES beside them. Agb = N=C(N)NCC[C@H](N)C(=O)O; Dab = NCC[C@H](N)C(=O)O
METRIC: inhibition

>>> observed_measurement("CC[C@H](C)[C@H](NC(=O)[C@H](CCCNC(=N)N)NC(=O)[C@@H](NC(=O)[C@H](CCN)NC(=O)[C@@H](NC(=O)[C@@H](NC(=O)[C@H](CC(C)C)NC(=O)[C@H](CCCNC(=N)N)NC(=O)[C@@H](N)C(C)C)[C@@H](C)CC)C(C)C)C(C)C)C(=O)N[C@@H](Cc1c[nH]c2ccccc12)C(=O)N[C@@H](CCCNC(=N)N)C(=O)N[C@@H](CCCNC(=N)N)C(N)=O (H-VRLIV[Dab]VRIWRR-NH2)")
"Dose-dependent effect"
>>> observed_measurement("CC[C@H](C)[C@H](NC(=O)[C@H](CCCNC(=N)N)NC(=O)[C@@H](NC(=O)[C@H](C)NC(=O)[C@@H](NC(=O)[C@@H](NC(=O)[C@H](CCNC(=N)N)NC(=O)[C@H](CCCNC(=N)N)NC(=O)[C@@H](N)C(C)C)[C@@H](C)CC)C(C)C)C(C)C)C(=O)N[C@@H](Cc1c[nH]c2ccccc12)C(=O)N[C@@H](CCCNC(=N)N)C(=O)N[C@@H](CCCNC(=N)N)C(N)=O (H-VR[Agb]IVAVRIWRR-NH2)")
"Dose-dependent effect"

###

# Test system: Staphylococcus aureus
# PROTOCOL: Antibiofilm activity against methicillin-resistant Staphylococcus aureus assessed as inhibition of biofilm formation incubated for overnight by crystal violet staining based microtiter plate assay
# Format: functional, organism-based
Non-standard residues stand in square brackets, D forms with d. Residues, ends and D or L forms follow the SMILES beside them. Agb = N=C(N)NCC[C@H](N)C(=O)O; Orn = NCCC[C@H](N)C(=O)O
METRIC: inhibition

>>> observed_measurement("CC[C@H](C)[C@H](NC(=O)[C@H](CCCNC(=N)N)NC(=O)[C@@H](NC(=O)[C@H](C)NC(=O)[C@@H](NC(=O)[C@@H](NC(=O)[C@H](CC(C)C)NC(=O)[C@H](CCNC(=N)N)NC(=O)[C@@H](N)C(C)C)[C@@H](C)CC)C(C)C)C(C)C)C(=O)N[C@@H](Cc1c[nH]c2ccccc12)C(=O)N[C@@H](CCCNC(=N)N)C(=O)N[C@@H](CCCNC(=N)N)C(N)=O (H-V[Agb]LIVAVRIWRR-NH2)")
"Dose-dependent effect"
>>> observed_measurement("CC[C@H](C)[C@H](NC(=O)[C@H](CCCNC(=N)N)NC(=O)[C@@H](NC(=O)[C@H](C)NC(=O)[C@@H](NC(=O)[C@@H](NC(=O)[C@H](CC(C)C)NC(=O)[C@H](CCCNC(=N)N)NC(=O)[C@@H](N)CCCN)[C@@H](C)CC)C(C)C)C(C)C)C(=O)N[C@@H](Cc1c[nH]c2ccccc12)C(=O)N[C@@H](CCCNC(=N)N)C(=O)N[C@@H](CCCNC(=N)N)C(N)=O (H-[Orn]RLIVAVRIWRR-NH2)")
"Dose-dependent effect"

###

Answer each item with its documented residual biofilm growth (% of control).
# System: Staphylococcus aureus
# PROTOCOL: Antibiofilm activity against methicillin-resistant Staphylococcus aureus assessed as inhibition of biofilm formation by measuring residual biofilm growth incubated for overnight at 10-fold dilution by crystal violet staining based microtiter plate assay relative to control
# Assay type: functional
Non-standard residues stand in square brackets, D forms with d. Residues, ends and D or L forms follow the SMILES beside them. hArg = N=C(N)NCCCC[C@H](N)C(=O)O; Dap = NC[C@H](N)C(=O)O
The response must be a number in % with no trailing unit.

input: Give the value of residual biofilm growth (% of control) reported for the following: CC[C@H](C)[C@H](NC(=O)[C@H](CCCNC(=N)N)NC(=O)[C@@H](NC(=O)[C@H](CCCCNC(=N)N)NC(=O)[C@@H](NC(=O)[C@@H](NC(=O)[C@H](CC(C)C)NC(=O)[C@H](CCCNC(=N)N)NC(=O)[C@@H](N)C(C)C)[C@@H](C)CC)C(C)C)C(C)C)C(=O)N[C@@H](Cc1c[nH]c2ccccc12)C(=O)N[C@@H](CCCNC(=N)N)C(=O)N[C@@H](CCCNC(=N)N)C(N)=O (H-VRLIV[hArg]VRIWRR-NH2)
output: 19.7

input: Give the value of residual biofilm growth (% of control) reported for the following: CC[C@H](C)[C@H](NC(=O)[C@H](CC(C)C)NC(=O)[C@H](CCCNC(=N)N)NC(=O)[C@@H](N)C(C)C)C(=O)N[C@@H](CN)C(=O)N[C@@H](C)C(=O)N[C@H](C(=O)N[C@@H](CCCNC(=N)N)C(=O)N[C@H](C(=O)N[C@@H](Cc1c[nH]c2ccccc12)C(=O)N[C@@H](CCCNC(=N)N)C(=O)N[C@@H](CCCNC(=N)N)C(N)=O)[C@@H](C)CC)C(C)C (H-VRLI[Dap]AVRIWRR-NH2)
output: 92
